Would you mind telling me the reported %Inh of each entry?
Tested on: DAPK1;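 also: KINOMEscan kinase panel screen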
measurement-parameters: concentration: 1 μM, replicates: in singlicate; n = 1
Kindly format the answer as number then unit.

Below: 4 compounds and their reported %Inh.
{"compound": "Cc1ccc(NC(=O)c2cccc(N3CCCCC3)c2)cc1-c1ccc(C(=O)NCC2CC2)cc1 [GSK1917008]", "test-system": "DAPK1", "result": "0%"}
{"compound": "CCn1cnc2c(NCc3ccccc3)ncnc21 [SKF-96418]", "test-system": "DAPK1", "result": "0%"}
{"compound": "COc1cc(Nc2nccc(N3CCC(NC(=O)Nc4ccc5c(c4)OCO5)C3)n2)cc(OC)c1OC (centres unmarked) [GSK1379766]", "test-system": "DAPK1", "result": "5%"}
{"compound": "O=C(Nc1n[nH]c2cc(-c3cccs3)ccc12)C1CC1 [SB-731284]", "test-system": "DAPK1", "result": "12%"}

Give measured %Inh for every item shown.
1. COC(=O)Nc1nc2ccc(Oc3ccc(NC(=O)Nc4cc(C(F)(F)F)ccc4F)cc3)cc2[nH]1.Cl [GW654607]
2. COc1cccc(C2=C(Nc3cccc(O)c3)C(=O)NC2=O)c1 [SB-390771]
3. O=C(O)C(F)(F)F.O=c1[nH]ccc2nc(N[C@@H]3CCNC3)nc(Nc3cc(Cl)cc(Cl)c3)c12 [GSK2188764]
4. Cc1nn2c(=O)cc(N3CCO[C@H](C)C3)nc2n1Cc1cccc(Cl)c1Cl [GSK2373693]

1: 2%; 2: 14%; 3: 97.3%; 4: 37%
